Source listed as ChEMBL document CHEMBL1123771.

# targetOfAssay: Angiotensin-converting enzyme (Rattus norvegicus, UniProt P47820)
# Sequence (P47820 whole entry): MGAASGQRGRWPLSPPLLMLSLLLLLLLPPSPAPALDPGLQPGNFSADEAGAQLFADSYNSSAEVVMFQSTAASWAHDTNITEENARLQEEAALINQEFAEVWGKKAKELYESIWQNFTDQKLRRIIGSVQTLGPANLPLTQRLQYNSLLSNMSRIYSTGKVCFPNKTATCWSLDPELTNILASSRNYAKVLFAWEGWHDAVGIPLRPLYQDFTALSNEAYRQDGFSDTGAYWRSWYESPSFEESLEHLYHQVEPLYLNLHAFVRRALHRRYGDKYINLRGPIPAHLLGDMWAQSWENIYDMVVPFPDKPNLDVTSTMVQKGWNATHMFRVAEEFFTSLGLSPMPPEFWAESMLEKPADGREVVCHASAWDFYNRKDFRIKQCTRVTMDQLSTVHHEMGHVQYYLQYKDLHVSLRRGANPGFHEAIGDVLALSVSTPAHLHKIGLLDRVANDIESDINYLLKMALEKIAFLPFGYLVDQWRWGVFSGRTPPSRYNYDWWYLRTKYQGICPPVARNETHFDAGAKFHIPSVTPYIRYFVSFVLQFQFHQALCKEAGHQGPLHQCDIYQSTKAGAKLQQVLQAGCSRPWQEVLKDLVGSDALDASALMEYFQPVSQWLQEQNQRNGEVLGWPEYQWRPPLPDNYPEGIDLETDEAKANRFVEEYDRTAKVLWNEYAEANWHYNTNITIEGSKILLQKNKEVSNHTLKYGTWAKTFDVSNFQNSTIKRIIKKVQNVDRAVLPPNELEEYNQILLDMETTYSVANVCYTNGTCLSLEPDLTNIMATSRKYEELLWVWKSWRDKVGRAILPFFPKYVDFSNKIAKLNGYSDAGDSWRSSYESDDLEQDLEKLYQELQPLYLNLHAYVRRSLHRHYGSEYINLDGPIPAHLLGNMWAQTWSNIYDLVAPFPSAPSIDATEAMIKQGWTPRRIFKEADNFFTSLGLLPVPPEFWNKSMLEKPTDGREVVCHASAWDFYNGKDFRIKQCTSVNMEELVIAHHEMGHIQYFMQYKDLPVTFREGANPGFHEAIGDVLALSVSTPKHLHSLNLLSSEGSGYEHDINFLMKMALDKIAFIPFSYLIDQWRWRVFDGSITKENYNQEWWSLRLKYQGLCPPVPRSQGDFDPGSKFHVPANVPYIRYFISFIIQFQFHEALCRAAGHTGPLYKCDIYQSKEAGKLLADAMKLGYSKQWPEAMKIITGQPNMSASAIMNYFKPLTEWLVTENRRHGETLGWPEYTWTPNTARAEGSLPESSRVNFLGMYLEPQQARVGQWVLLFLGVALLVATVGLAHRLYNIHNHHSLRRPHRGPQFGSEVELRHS
observationType: IC50 (nM)
Give bare numbers, in nM.

compound	IC50, nM
CC(CS)C(=O)N1C(=O)CCC1C(=O)O (configuration not stated)	9.3

Please look at the items below and tell me IC50 for each one, in order.
1. CCOC(=O)C(CCc1ccccc1)NC(C)C(=O)N1C(=O)CCC1C(=O)O (configuration not stated)
2. O=C1SCCC(=O)N2C1CC1CCCCC12 (configuration not stated)
3. CC(=O)SCC(C)C(=O)N1[C@H](C(=O)O)C[C@@H]2CCCC[C@@H]21 (stereo in doubt; 9a)
4. CC(CS)C(=O)N1[C@H](C(=O)O)C[C@@H]2CCCC[C@@H]21 (stereo in doubt; 9f)
5. CC(=O)SCC(C)C(=O)N1[C@H](C(=O)O)C[C@@H]2CCCC[C@@H]21 (stereo in doubt; 9b)
6. O=C(O)C1Cc2ccccc2N1C(=O)CCS (configuration not stated)

**A:**
[63, 7, 160, 5.2, 35000, 140]
